Listed below: EC50 for IPTG (log10 µmol/L) values for each entry.
B1: library; the commonest letter at each place (parent)
chain: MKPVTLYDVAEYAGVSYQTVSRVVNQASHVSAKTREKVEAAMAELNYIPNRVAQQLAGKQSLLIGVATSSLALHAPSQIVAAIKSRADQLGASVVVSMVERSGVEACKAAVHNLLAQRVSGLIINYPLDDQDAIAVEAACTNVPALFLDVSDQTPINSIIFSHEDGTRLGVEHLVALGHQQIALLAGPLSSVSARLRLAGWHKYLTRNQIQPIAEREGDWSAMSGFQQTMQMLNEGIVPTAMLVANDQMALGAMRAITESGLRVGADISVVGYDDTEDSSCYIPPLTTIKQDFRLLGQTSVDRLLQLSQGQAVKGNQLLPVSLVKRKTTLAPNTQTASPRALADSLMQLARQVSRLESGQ

Variants of: B1
Conditions: with IPTG
Reply with just the number.

K203N D278V S280L I283V
1.8
L169P
2.68
A27T A87T S102G N316I L330P Q352R
1.04
S70R A87P V301M E357G
3.59
V94M S190C G200A Q209R R263H Q317L
1.44

INPUT: Look up EC50 for IPTG (log10 µmol/L): V24L V52M A72T A214V I268V K325Q P332H A337V
OUTPUT: 1.47

INPUT: Name the recorded EC50 for IPTG (log10 µmol/L) for I83F G200C .
OUTPUT: 1.91

INPUT: Param item = G103D H202Y P284T ; retrieve measured EC50 for IPTG (log10 µmol/L).
OUTPUT: 1.5

INPUT: Requested field: EC50 for IPTG (log10 µmol/L). Item: S97T F161V
OUTPUT: 2.22

INPUT: May I ask what EC50 for IPTG (log10 µmol/L) has been recorded for `V301M` ?
OUTPUT: 1.82

INPUT: Fill in the blank: the reported EC50 for IPTG (log10 µmol/L) of `N208Y` is ____.
OUTPUT: 2.01

INPUT: So what does the record say about EC50 for IPTG (log10 µmol/L) for `D130E` ?
OUTPUT: 1.9
